This document collects pKi values reported for Cannabinoid receptor 1 (Homo sapiens, UniProt P21554).
Answers are plain numbers, as −log10 of the molar value.

Here's what some known entries look like.
MOLECULE | MEASURED QUANTITY | OBSERVED MEASUREMENT
CCCCCn1cc(C(=O)NC23CC4CC(CC(C4)C2)C3)c(=O)c2cc(-c3cc(C)c(OC)c(C)c3)ccc21 | pKi | 6.29
CCCCCn1cc(C(=O)NC23CC4CC(CC(C4)C2)C3)c(=O)c2cc([S+]([O-])c3ccccc3)ccc21 (stereo not drawn) | pKi | 6.34
C#CCn1cc(C(=O)NC23CC4CC(CC(C4)C2)C3)c(=O)c2cc(Br)ccc21 | pKi | 5.49

Next:
Param item = CCCCCn1cc(C(=O)N[C@H]2C(C)(C)[C@H]3CC[C@]2(C)C3)c(=O)c2cc(-c3ccco3)ccc21 ; retrieve measured pKi.
6.32
